System: L1210
method: Inhibition of RNA synthesis in mouse L1210 cells assessed as inhibition of [14C]-uridine incorporation measured per 10^6 cells at 5 uM pretreated for 1 hr followed by radiotracer addition measured after 1 hr by scintillation spectrometric analysis relative to control
Format: functional
Everything with inhibition at 5 µM lower than 50% is f; everything else, including exactly 50%, is t.

Worked cases, answers included:
molecule=COc1cccc2c1C(=O)c1c(O)c3c(c(O)c1C2=O)C[C@@](O)(C(=O)CO)C[C@@H]3O[C@H]1C[C@H](N)[C@H](O)[C@H](C)O1 system_under_test=L1210 cat=t
molecule="COc1cccc2c1C(=O)c1c(O)c3c(c(O)c1C2=O)C[C@@](O)(C(C)O)C[C@@H]3O[C@H]1C[C@H](N)[C@H](O)[C@H](C)O1 (stereo not given in full)" system_under_test=L1210 cat=f
molecule=COc1cccc2c1C(=O)c1c(O)c3c(c(O)c1C2=O)C[C@@](O)(C(C)=O)C[C@@H]3O[C@H]1C[C@H](N)[C@H](O)[C@H](C)O1 system_under_test=L1210 cat=t
molecule="COc1cccc2c1C(=O)C1=C(C2=O)C(O)C2=C(C1O)[C@@H](C[C@@H]1C[C@H](N)[C@@H](O)[C@H](C)O1)C[C@@](O)(/C(C)=N/NC(=O)c1ccccc1)C2 (stereo not given in full)" system_under_test=L1210 cat=t

Query molecule follows.
In plain terms: is recorded inhibition at 5 µM at least 50% for "COc1cccc2c1C(=O)c1c(O)c3c(c(O)c1C2=O)C[C@@](O)([C@@H](O)CO)C[C@@H]3O[C@H]1C[C@H](N)[C@H](O)[C@H](C)O1" ?
f

* * *

# inhibition at 5 µM listing for each entry below
System: L1210
method: Inhibition of DNA synthesis in mouse L1210 cells assessed as inhibition of [3H]-thymidine incorporation measured per 10^6 cells at 5 uM pretreated for 1 hr followed by radiotracer addition measured after 1 hr by scintillation spectrometric analysis relative to control
Type: functional
Express the result in % but write the number alone.

Solved cases below.
compound="COc1cccc2c1C(=O)c1c(O)c3c(c(O)c1C2=O)C[C@@](O)(C(C)O)C[C@@H]3O[C@H]1C[C@H](N)[C@H](O)[C@H](C)O1 (stereo not given in full)" meas_value=36.8
compound=COc1cccc2c1C(=O)c1c(O)c3c(c(O)c1C2=O)C[C@@](O)(C(=O)CO)C[C@@H]3O[C@H]1C[C@H](N)[C@H](O)[C@H](C)O1 meas_value=52.2
compound="COc1cccc2c1C(=O)C1=C(C2=O)C(O)C2=C(C1O)[C@@H](C[C@@H]1C[C@H](N)[C@@H](O)[C@H](C)O1)C[C@@](O)(/C(C)=N/NC(=O)c1ccccc1)C2 (stereo not given in full)" meas_value=41
compound=COc1cccc2c1C(=O)c1c(O)c3c(c(O)c1C2=O)C[C@@](O)([C@@H](O)CO)C[C@@H]3O[C@H]1C[C@H](N)[C@H](O)[C@H](C)O1 meas_value=32

Please turn your attention to the following entry.
Specify inhibition at 5 µM for "COc1cccc2c1C(=O)c1c(O)c3c(c(O)c1C2=O)C[C@@](O)(C(C)=O)C[C@@H]3O[C@H]1C[C@H](N)[C@H](O)[C@H](C)O1" and stop.
83

* * *

Tested on: L1210
method: Cellular uptake in mouse L1210 cells assessed per 10^6 cells at 3 uM up to 120 mins
Format: ADME, cell-based
assay_context: l1210, 2 h
Lab note: cut-off is 0.2 nmol. Strictly less in Drug uptake is satisfied. Exactly 0.2 nmol or more is not satisfied.

Worked cases, answers included:
compound="COc1cccc2c1C(=O)c1c(O)c3c(c(O)c1C2=O)C[C@@](O)(C(C)O)C[C@@H]3O[C@H]1C[C@H](N)[C@H](O)[C@H](C)O1 (stereo not given in full)" system_under_test=L1210 cat="not satisfied"
compound=COc1cccc2c1C(=O)c1c(O)c3c(c(O)c1C2=O)C[C@@](O)([C@@H](O)CO)C[C@@H]3O[C@H]1C[C@H](N)[C@H](O)[C@H](C)O1 system_under_test=L1210 cat=satisfied
compound=COc1cccc2c1C(=O)c1c(O)c3c(c(O)c1C2=O)C[C@@](O)(C(=O)CO)C[C@@H]3O[C@H]1C[C@H](N)[C@H](O)[C@H](C)O1 system_under_test=L1210 cat=satisfied

Query compound follows.
Report whether reported Drug uptake is lower than 0.2 nmol (strictly) for "COc1cccc2c1C(=O)c1c(O)c3c(c(O)c1C2=O)C[C@@](O)(C(C)=O)C[C@@H]3O[C@H]1C[C@H](N)[C@H](O)[C@H](C)O1"
not satisfied

Numbers sourced from ChEMBL document CHEMBL3272341.
